Test: Oral bioavailability and half-life in fasted adult beagles
Conditions: dog, in vivo, po; fasted adult beagles; 10 mg/kg IV bolus and 20 mg/kg solution via stomach tube; read-out: Absolute Oral Bioavailability %
measurement_label: bioavailability (%)
Express the result in % but write the number alone.

[in] GET /values?readout=bioavailability&item= NC[C@H]1O[C@@H](n2cnc(C(N)=O)c2N)[C@H](O)[C@@H]1O [Compound No. 21, 5'-Amino-5'-deoxy-AICA-riboside]
[out] 71

----------
Tested on: coronary endothelial cells
Experiment: Inhibition of adenosine utilization in cell culture
Type: cell-based
Details: 50 µM test compound, 1 µM [3H] adenosine, 15 minutes
measurement_label: Inhibition of Adenosine Utilization (%)
Enter the number, and then the unit.

{"mol": "[N-]=[N+]=NC[C@H]1O[C@@H](n2cnc(C(=O)NCc3ccc([N+](=O)[O-])cc3)c2N)[C@H](O)[C@@H]1O", "reading": "31 ± 11%"}
{"mol": "Cl.NC[C@H]1O[C@@H](n2cnc(C(=O)NCc3ccc(Cl)cc3)c2N)[C@H](O)[C@@H]1O", "reading": "58 ± 2%"}
{"mol": "Nc1c(C(=O)NCc2ccc(S(N)(=O)=O)cc2)ncn1[C@@H]1O[C@H](CO)[C@@H](O)[C@H]1O", "reading": "30 ± 3%"}

// switching to the query molecule
[in] GET /values?readout=Inhibition of Adenosine Utilization (%)&item= `Nc1c(C(=O)NCCCc2ccc([N+](=O)[O-])cc2)ncn1[C@@H]1O[C@H](CO)[C@@H](O)[C@H]1O`
[out] 33 ± 9%

----------
Test system: coronary endothelial cells
Assay: Inhibition of adenosine utilization in cell culture
Format: cell-based
Conditions: Endothelial cell, read-out: Inhibition of Adenosine Utilization (%)
measurement_label: inhibition at 5 µM (%)
Express the result in % but write the number alone.

# count of solved cases: 4
{"mol": "Nc1c(C(=O)NCc2ccc([N+](=O)[O-])cc2)ncn1[C@@H]1O[C@H](CI)[C@@H](O)[C@H]1O", "inhibition at 5 µM, %": 19}
{"mol": "Nc1c(C(=O)NCc2ccc(Cl)cc2)ncn1[C@@H]1O[C@H](CO)[C@@H](O)[C@H]1O", "inhibition at 5 µM, %": 41}
{"mol": "Nc1c(C(=O)N2CCc3ccccc32)ncn1[C@@H]1O[C@H](CO)[C@@H](O)[C@H]1O", "inhibition at 5 µM, %": 23}
{"mol": "Nc1c(C(=O)NCc2ccc(Br)cc2)ncn1[C@@H]1O[C@H](CO)[C@@H](O)[C@H]1O", "inhibition at 5 µM, %": 55}

[in] GET /values?readout=inhibition at 5 µM&item= `Nc1c(C(=O)NCc2cccc([N+](=O)[O-])c2)ncn1[C@@H]1O[C@H](CO)[C@@H](O)[C@H]1O`
[out] 17

[in] Please do the same for `Nc1c(C(=O)NCc2ccc([N+](=O)[O-])cc2)ncn1[C@@H]1O[C@H](CO)[C@@H](O)[C@H]1O` as well.
[out] 27

[in] Please do the same for `Cc1ccc(CNC(=O)c2ncn([C@@H]3O[C@H](CO)[C@@H](O)[C@H]3O)c2N)cc1` as well.
[out] 21

----------
Each entry below carries its recorded Function Recovery % Baseline LVDP (% of hearts).
Test system: Isolated rat hearts
Assay: Improved functional recovery in isolated hearts (Langendorff, post-ischemic LVDP)
Conditions: 1 µM in perfusion buffer; 30 min ischemia, 30 min reperfusion; number in brackets = hearts

# count of solved cases: 2
{"compound": "Nc1c(C(=O)NCCc2ccc([N+](=O)[O-])cc2)ncn1[C@@H]1O[C@H](CO)[C@@H](O)[C@H]1O [Compound No. 59]", "target_system": "Isolated rat hearts", "reading": "75.8±2.2 (7) %"}
{"compound": "NC[C@H]1O[C@@H](n2cnc(C(N)=O)c2N)[C@H](O)[C@@H]1O [Compound No. 21, 5'-Amino-5'-deoxy-AICA-riboside]", "target_system": "Isolated rat hearts", "reading": "77.0±4.4 (10) %"}

[in] GET /values?readout=Function Recovery % Baseline LVDP (% of hearts)&item= `Nc1c(C(=O)SCc2ccc([N+](=O)[O-])cc2)ncn1[C@@H]1O[C@H](CO)[C@@H](O)[C@H]1O`
[out] 74.0±2.8 (6) %

[in] Please do the same for Nc1c(C(=O)NCc2ccc(Cl)cc2)ncn1[C@@H]1O[C@H](CO)[C@@H](O)[C@H]1O [Compound No. 29] as well.
[out] 76.7±2.9 (7) %

[in] Please do the same for Nc1c(C(=O)NCc2ccc([N+](=O)[O-])cc2)ncn1[C@@H]1O[C@H](CO)[C@@H](O)[C@H]1O [Compound No. 23] as well.
[out] 79.0±2.3 (6) %

----------
Test: Oral bioavailability and half-life in fasted adult beagles
Conditions: beagle, dog, in vivo, oral; fasted adult beagles; 10 mg/kg IV bolus and 20 mg/kg solution via stomach tube; read-out: Absolute Oral Bioavailability %
Experimental: Heparinized blood and urine were collected at selected intervals over 24 hours. Each sample was chilled, centrifuged at 4°C and frozen prior to HPLC analysis.
measurement_label: bioavailability (%)
Express the result in % but write the number alone.

[in] GET /values?readout=bioavailability&item= NC(=O)c1ncn([C@@H]2O[C@H](CO)[C@@H](O)[C@H]2O)c1N [Compound No. 1, reference compound]
[out] 8

----------
Assay: Oral bioavailability and half-life in fasted adult beagles
Conditions: dog, in vivo; fasted adult beagles
measurement_label: half-life (h)
Express the result in h but write the number alone.

[in] GET /values?readout=half-life&item= NC[C@H]1O[C@@H](n2cnc(C(N)=O)c2N)[C@H](O)[C@@H]1O [Compound No. 21, 5'-Amino-5'-deoxy-AICA-riboside]
[out] 1.3

----------
Each entry below carries its recorded Function Recovery % Baseline LVDP (% of hearts).
System: Isolated rat hearts
Experiment: Improved functional recovery in isolated hearts (Langendorff, post-ischemic LVDP)
Details: 5 µM in perfusion buffer; 30 min ischemia, 30 min reperfusion; number in brackets = hearts

# count of solved cases: 4
{"molecule": "Cl.NC[C@H]1O[C@@H](n2cnc(C(=O)NCc3ccc(Cl)cc3)c2N)[C@H](O)[C@@H]1O", "reading": "85.6±1.8 (10) %"}
{"molecule": "CNC[C@H]1O[C@@H](n2cnc(C(N)=O)c2N)[C@H](O)[C@@H]1O", "reading": "79.7±4.8 (4) %"}
{"molecule": "[N-]=[N+]=NC[C@H]1O[C@@H](n2cnc(C(=O)NCc3ccc(Cl)cc3)c2N)[C@H](O)[C@@H]1O", "reading": "86.0±2.5 (5) %"}
{"molecule": "Nc1c(C(=O)NCc2ccc(C(F)(F)F)cc2)ncn1[C@@H]1O[C@H](CO)[C@@H](O)[C@H]1O", "reading": "73.3±3.3 (6) %"}

[in] GET /values?readout=Function Recovery % Baseline LVDP (% of hearts)&item= Nc1c(C(=O)NC2CCC(NC(=O)c3ncn([C@@H]4O[C@H](CO)[C@@H](O)[C@H]4O)c3N)CC2)ncn1[C@@H]1O[C@H](CO)[C@@H](O)[C@H]1O (stereo partly shown)
[out] 77.0±2.8 (6) %

[in] Please do the same for NC(=O)c1ncn([C@@H]2O[C@H](CO)[C@@H](O)[C@H]2O)c1N [Compound No. 1, reference compound] as well.
[out] 64.2±1.5 (6) %

[in] Please do the same for `NC(=O)c1ncn([C@@H]2O[C@H](CNCc3ccccc3)[C@@H](O)[C@H]2O)c1N` as well.
[out] 88.5±1.8 (5) %

[in] Please do the same for `Nc1c(C(=O)NCCCCCCNC(=O)c2ncn([C@@H]3O[C@H](CO)[C@@H](O)[C@H]3O)c2N)ncn1[C@@H]1O[C@H](CO)[C@@H](O)[C@H]1O` as well.
[out] 75.3±2.2 (4) %

[in] Please do the same for `Nc1c(C(=O)NCc2ccccc2)ncn1[C@@H]1O[C@H](CO)[C@@H](O)[C@H]1O` as well.
[out] 77.2±5.8 (7) %

[in] Please do the same for `Cl.NC[C@H]1O[C@@H](n2cnc(C(=O)NC3CCCC3)c2N)[C@H](O)[C@@H]1O` as well.
[out] 71.9±3.0 (5) %

----------
Each entry below carries its recorded Function Recovery % Baseline LVDP (% of hearts).
System: Isolated rat hearts
Assay: Improved functional recovery in isolated hearts (Langendorff, post-ischemic LVDP)
Conditions: 5 µM in perfusion buffer; 30 min ischemia, 30 min reperfusion; number in brackets = hearts

# count of solved cases: 3
{"compound": "C[C@H]1O[C@@H](n2c(S)nc(C(N)=O)c2N)[C@H](O)[C@@H]1O [Compound No. 67]", "target_system": "Isolated rat hearts", "reading": "77.4±5.7 (3) %"}
{"compound": "NC[C@H]1O[C@@H](n2cnc(C(N)=O)c2N)[C@H](O)[C@@H]1O [Compound No. 21, 5'-Amino-5'-deoxy-AICA-riboside]", "target_system": "Isolated rat hearts", "reading": "81.0±3.2 (8) %"}
{"compound": "CCN(CC)C[C@H]1O[C@@H](n2cnc(C(N)=O)c2N)[C@H](O)[C@@H]1O [compound 65]", "target_system": "Isolated rat hearts", "reading": "72.3±5.6 (4) %"}

[in] GET /values?readout=Function Recovery % Baseline LVDP (% of hearts)&item= NC(=O)c1ncn([C@@H]2O[C@H](CCl)[C@@H](O)[C@H]2O)c1N [Compound No. 26]
[out] 70.7±4.1 (8) %

[in] Please do the same for NC(=O)c1ncn([C@@H]2O[C@H](CNCc3ccc(Cl)cc3)[C@@H](O)[C@H]2O)c1N [Compound No. 76] as well.
[out] 74.0±2.5 (6) %

[in] Please do the same for Nc1c(C(=O)NC2CCCC2)ncn1[C@@H]1O[C@H](CO)[C@@H](O)[C@H]1O [Compound No. 10] as well.
[out] 83.7±0.7 (6) %

[in] Please do the same for NC(=O)c1nc(S)n([C@@H]2O[C@H](CO)[C@@H](O)[C@H]2O)c1N [Compound No. 27] as well.
[out] 74.6±3.7 (7) %
